growth listing for selected compounds.
# Tested on: SNB-19 CNS
# EXPERIMENTAL PROTOCOL: NCI-60 one-dose screen, 48 h (100 = growth as untreated, 0 = no growth, -100 = all killed)
# CONDITION PARAMETERS: 10 µM unless noted
About 83,000 compounds went through this panel and 20% of them were active in at least one assay; those are over-represented in the sample as a whole. The source made the active and inactive calls. How the source made its calls: active means growth percent below 10; inactive means the rest.

[
  {
    "CHEMICAL STRUCTURE": "CCCn1cc(/C=N\\N=C2\\C(=O)Nc3ccc(C)cc32)c2ccccc21",
    "growth": "63.3% (inactive)"
  },
  {
    "CHEMICAL STRUCTURE": "O=C(CN1N=C(c2ccc(F)cc2)CCC1=O)Nc1nc2ccccc2s1",
    "growth": "94.4% (inactive)"
  },
  {
    "CHEMICAL STRUCTURE": "CCOC(=O)/C=C1\\SC(=Nc2ccc(C#N)cc2)N(CCN2C(=O)/C(=C/C(=O)OCC)SC2=Nc2ccc(C#N)cc2)C1=O",
    "growth": "28.2% (inactive)"
  },
  {
    "CHEMICAL STRUCTURE": "CCSc1nc(Cl)c(C#N)c(-c2ccc(F)cc2)n1",
    "growth": "92.7% (inactive)"
  },
  {
    "CHEMICAL STRUCTURE": "COc1cccc(NC(=O)Nc2ccc(Oc3ncnc4[nH]c(C)c(C)c34)cc2)c1",
    "growth": "89.7% (inactive)"
  }
]
